Method Description: decrease of insulin promoter-GFP reporter – imaging, high-content screening, mouse beta cells (AID 1628)
Experimental Conditions: MIN6 insulin promoter GFP reporter, at 5 µM, active compounds read low
Screen size: about 190,000 compounds; about 930 (0.49%) were called active. Some of the results follow. Entries with a potency or affinity are not part of this list.
Readout Kind: z-score

- Molecule: "CCNc1nc(N2CCCC2)nc(N2CCCC2)n1"
  Data Value: -3.04
- Molecule: "CCCN(CCC)S(=O)(=O)c1ccc(C(=O)Nc2nnc(-c3cc(OC)cc(OC)c3)o2)cc1"
  Data Value: -4.56
- Molecule: "Nc1cc(S(=O)(=O)Nc2ccccc2Cl)ccc1N1CCOCC1"
  Data Value: 2.18
- Molecule: "Cc1cnc(NC(=O)CN2CCN(c3ccccn3)CC2)s1"
  Data Value: 3.14
- Molecule: "CCn1ncc(C2=NOC(C(=O)Nc3cccc(C(C)=O)c3)C2)c1C (stereo not given)"
  Data Value: -3
- Molecule: "COc1cc(OC)cc(C(=O)Nc2cccc(C(C)=O)c2)c1"
  Data Value: 3.53
- Molecule: "COc1ccc2cc(/C(C)=N/NC(=S)Nc3cc(S(=O)(=O)N4CCOCC4)ccc3N3CCOCC3)ccc2c1"
  Data Value: -3.25
- Molecule: "O=S(=O)([O-])CCC[n+]1c(/C=C\\Nc2ccccc2)oc2ccc(-c3ccccc3)cc21"
  Data Value: 3.19
- Molecule: "Cc1ccn2cc(-c3ccc(S(=O)(=O)N4CCOCC4)cc3)nc2c1"
  Data Value: -0.88
- Molecule: "COc1ccc(CN2CCN(c3ccccn3)CC2)cc1OCc1ccccc1"
  Data Value: -8.87

###

Method Description: decrease of insulin promoter-GFP reporter – imaging, high-content screening, mouse beta cells (AID 1628)
Experimental Conditions: MIN6 insulin promoter GFP reporter, at 5 µM, active compounds read low
In all, about 190,000 compounds went through this assay and about 930 (0.49%) were called active. The list shows a part of the results. Potency and affinity values are given separately.
Readout Kind: z-score

- Compound: "Cc1ccc(-n2c3c(c(=O)[nH]c2=O)C(C(F)(F)F)(C(F)(F)F)NC(=O)N3)cc1"
  Readout Kind: "z-score"
  Data Value: 3.01
- Compound: "CCOC(=O)CC1C(=O)NCCN1c1nc2c(C)cccn2c(=O)c1/C=C1\\SC(=S)N(CC(C)C)C1=O (configuration not stated)"
  Readout Kind: "z-score"
  Data Value: 16.9
- Compound: "CCOC(=O)c1c(NC(=O)COC(=O)c2cc(OC)c(OC)cc2[N+](=O)[O-])sc(C)c1C"
  Readout Kind: "z-score"
  Data Value: -7.34
- Compound: "O=c1[nH]c(-c2ccccn2)nc2sc(-c3ccccc3)cc12"
  Readout Kind: "z-score"
  Data Value: -6.56
- Compound: "CCN1CC=C2C(C1)C(c1ccc(Cl)s1)C(C#N)=C(N)C2(C#N)C#N (configuration not stated)"
  Readout Kind: "z-score"
  Data Value: 15.5
- Compound: "Cc1cc(/C=N/n2cnnc2)c(C)n1-c1cccc(C(=O)O)c1"
  Readout Kind: "z-score"
  Data Value: 4.18
- Compound: "N#Cc1c(C(F)(F)F)cc(-c2ccccc2)nc1SCc1nc(N)nc(N2CCOCC2)n1"
  Readout Kind: "z-score"
  Data Value: 15.4
- Compound: "O=[N+]([O-])c1ccc(N/N=C/c2cn(Cc3ccc(F)cc3)c3ccccc23)nc1"
  Readout Kind: "z-score"
  Data Value: 4.69
- Compound: "CCOC(=O)C1=C(N2CCCCC2)c2cc3c(n2C1=O)CCCC3"
  Readout Kind: "z-score"
  Data Value: -3.42
- Compound: "N#Cc1cccc(NC(=O)COC(=O)CCc2nc3ccccc3c(=O)[nH]2)c1"
  Readout Kind: "z-score"
  Data Value: 1.59
- Compound: "CC1(C)Cc2c(c(-c3ccccc3)[nH]c(=O)c2C#N)CO1"
  Readout Kind: "z-score"
  Data Value: 3.41
- Compound: "Cc1ccc(CN2CCN(/N=C/C=C/c3ccccc3[N+](=O)[O-])CC2)cc1"
  Readout Kind: "z-score"
  Data Value: -4.13
- Compound: "CC1(C)Cc2c(C#N)c(SCC(=O)c3ccccc3)nc(N3CCOCC3)c2CO1"
  Readout Kind: "z-score"
  Data Value: -3.99
- Compound: "CC1Cc2ccccc2N1S(=O)(=O)c1cccs1 (configuration not stated)"
  Readout Kind: "z-score"
  Data Value: -6.66
- Compound: "CCN(CC)CCCC(C)Nc1c2ccc(Cl)cc2nc2ccc(OC)cc12 (configuration not stated)"
  Readout Kind: "z-score"
  Data Value: 12.4
- Compound: "O=c1c(-c2ccccc2)coc2cc(O)ccc12"
  Readout Kind: "z-score"
  Data Value: 0.33
- Compound: "Cc1cccc(C2C3=C(Nc4[nH]n(-c5ccccc5)c(=O)c42)c2ccccc2C3=O)c1 (configuration not stated)"
  Readout Kind: "z-score"
  Data Value: -4.1
- Compound: "CCCN1C(=O)/C(=C\\C=C2\\N(CC)c3ccccc3C2(C)C)SC1=S"
  Readout Kind: "z-score"
  Data Value: 17.2
- Compound: "CCCCCOC(=O)C1=C(C)Nc2nnnn2C1c1ccc(OC)c(OC)c1OC (configuration not stated)"
  Readout Kind: "z-score"
  Data Value: 3.26
- Compound: "CC1CC(C)CN(C(=O)C(NS(=O)(=O)c2ccc3c(c2)oc(=O)n3C)C(C)C)C1 (configuration not stated)"
  Readout Kind: "z-score"
  Data Value: -5.42
- Compound: "CC(=O)c1n[nH]nc1Nc1nc(C)cc(C)n1"
  Readout Kind: "z-score"
  Data Value: 0.61
- Compound: "O=C(Nc1ccc(Cl)cc1)/C(=C/c1ccc([N+](=O)[O-])cc1)c1nc2ccccc2s1"
  Readout Kind: "z-score"
  Data Value: -4.86
- Compound: "O=C(COC(=O)Cn1cnc2ccccc2c1=O)Nc1cc(Cl)ccc1[N+](=O)[O-]"
  Readout Kind: "z-score"
  Data Value: -4.27
- Compound: "Cc1nc2ccc(S(=O)(=O)NC(C(=O)N3CCC(C)CC3)C(C)C)cc2s1 (configuration not stated)"
  Readout Kind: "z-score"
  Data Value: -4.34
- Compound: "CCN(CC)CCN1C(=O)c2oc3ccccc3c(=O)c2C1c1ccccc1 (configuration not stated)"
  Readout Kind: "z-score"
  Data Value: 3.66
- Compound: "CC(C)=CCc1c2c(c3occ(-c4ccc(O)cc4)c(=O)c3c1O)C=CC(C)(C)O2"
  Readout Kind: "z-score"
  Data Value: -0.49
- Compound: "CCCCN1C(=O)C2(NNc3ccccc3O2)c2ccccc21 (configuration not stated)"
  Readout Kind: "z-score"
  Data Value: 4.38
- Compound: "CCOc1cccc2cc(C(N)=O)c(=NCc3ccccc3)oc12"
  Readout Kind: "z-score"
  Data Value: -3.34
- Compound: "CCOC(=O)CN1C(=O)S/C(=C/c2ccc(N3CCCCC3)o2)C1=O"
  Readout Kind: "z-score"
  Data Value: 5.8
- Compound: "c1ccc(-c2ccc(-c3nccc4ccccc34)[nH]2)cc1"
  Readout Kind: "z-score"
  Data Value: 4.38
- Compound: "N#Cc1ccc(-c2ccccc2)nc1SCC(=O)c1cccc(Cl)c1"
  Readout Kind: "z-score"
  Data Value: 4.3
- Compound: "CC1(C)Cc2c(C#N)c(SCC(=O)c3ccccc3)nc(N3CCOCC3)c2CS1"
  Readout Kind: "z-score"
  Data Value: -3.04
- Compound: "Cc1sc(-n2c(C)cc(/C=N/n3cnnc3)c2C)c(C#N)c1C"
  Readout Kind: "z-score"
  Data Value: -4.46
- Compound: "CCN(CC)CCCNc1nc2cc(OC)c(OC)cc2c2nc(-c3cccnc3)nn12"
  Readout Kind: "z-score"
  Data Value: -3.38
- Compound: "CC1CCN(C(=O)CNS(=O)(=O)c2ccc(Br)s2)CC1"
  Readout Kind: "z-score"
  Data Value: 3.37
- Compound: "O=C(Cc1nc(-c2ccc([N+](=O)[O-])cc2)cs1)Nc1ccccc1"
  Readout Kind: "z-score"
  Data Value: 8.58
- Compound: "N=c1oc2c3c4c(cc2cc1C(=O)Nc1ccccc1)CCCN4CCC3"
  Readout Kind: "z-score"
  Data Value: 18
- Compound: "N#Cc1ccc(-c2ccc(Cl)cc2)nc1SCC(=O)c1cccc(Cl)c1"
  Readout Kind: "z-score"
  Data Value: 6.91
- Compound: "CCCCC(=O)Nc1ccc2c(c1)nc1n2CCSC1"
  Readout Kind: "z-score"
  Data Value: 3.16
- Compound: "O=c1c(N2CCOCC2)c(N2CCOCC2)c1=O"
  Readout Kind: "z-score"
  Data Value: 3.02
- Compound: "COc1ccccc1NS(=O)(=O)c1cc([N+](=O)[O-])ccc1N/N=C/c1sc(N2CCOCC2)nc1-c1ccccc1"
  Readout Kind: "z-score"
  Data Value: 4.89
- Compound: "CCCN1C(=O)/C(=C/C=C2\\N(CC)c3ccccc3C2(C)C)SC1=S"
  Readout Kind: "z-score"
  Data Value: 12.5
